meta.source: the RepoRT retention time repository

Assay: RP, Waters CORTECS UPLC C18, 100 × 2.1 mm, 1.6 µm, 40 °C, 0.4 mL/min, estimated dead time 0.55 min; A: water + 0.1% formic acid, pH 3; B: acetonitrile + 0.1% formic acid, pH 3; gradient (min/%B) 0/5 1.12/5 6.41/99.5 10.01/99.5
Details: stereoisomer not certain
Readout kind: LC retention time (min)
Give bare numbers, in min.

{"Compound": "CCCCOC(=O)N(C)SN(C)C(=O)Oc1cccc2c1OC(C)(C)C2 [Furathiocarb]", "Unit info": "min", "Val": 6.05}
{"Compound": "CNC(=O)C(=NOC)c1ccccc1COc1cc(C)ccc1C [Dimoxystrobin]", "Unit info": "min", "Val": 5.25}

For the 4 compounds below, give their LC retention time values.
1. CC1(C)CCC(Cc2ccc(Cl)cc2)C1(O)Cn1cncn1 (centres undefined) [Metconazole]
2. CC(C)N1C(=O)N(c2ccccc2)CSC1=NC(C)(C)C [Buprofezin]
3. CC(C)CC(=O)OC(CC(=O)[O-])C[N+](C)(C)C [Isovaleryl-L-carnitine]
4. O=CCc1c[nH]c2ccccc12 [INDOLEACETALDEHYDE]

Reply text:
1: 5.24; 2: 5.45; 3: 2.61; 4: 2.55

Your task in this section: give LC retention time for each listed record.
1. OC1COC(O)C(O)C1O (centres undefined) [ARABINOSE]
2. CNC(=O)N(C)c1nc2ccccc2s1 [Methabenzthiazurone]

Reply text:
1: 0.798; 2: 4.12

Value sought for every listed compound: LC retention time.
1. CC#Cc1cc(C)nc(Nc2ccccc2)n1 [Mepanipyrim]
2. COP(=S)(OC)Oc1nc(Cl)c(Cl)cc1Cl [Chlorpyriphos-methyl]
3. CNC(=O)Oc1cccc2c1OC(C)(C)C2 [Carbofuran]

Reply text:
1. 5.11
2. 5.73
3. 4.09
